Compiled notes: published IC50 values involving Telomerase reverse transcriptase (Homo sapiens).
measured-property: IC50

> print(dat)
                              smiles.record  measured.property  value.reported
1  O=C(CCN1CCOCC1)Nc1ccc2c(c1)C(=O)c1cc(NC(=O)CCN3CCOCC3)ccc1-2               IC50         > 50 µM
2  O=C(O)CCCCCCCCCCCNC(=O)COc1c(-c2cc3ccccc3[nH]2)[nH]c2ccccc12               IC50        > 100 µM
3  O=C(Cc1cn(CCCn2cccc2)c2ccccc12)NCCCCCCCCCCCOP(=O)(O)c1ccccc1Cl               IC50          4.2 µM
4  C[N+]1(CCC(=O)Nc2cccc3c2C(=O)c2cccc(NC(=O)CC[N+]4(C)CCCCC4)c2C3=O)CCCCC1               IC50          8.6 µM
5  C[N+]1(CCC(=O)Nc2ccc3c(c2)C(=O)c2cc(NC(=O)CC[N+]4(C)CCCCC4)ccc2C3=O)CCCCC1               IC50          7.8 µM

###

pIC50: −log10 of the molar value.
// compounds with pIC50 on Telomerase reverse transcriptase (Homo sapiens, UniProt O14746), multi-source literature
Sequence (O14746 whole entry): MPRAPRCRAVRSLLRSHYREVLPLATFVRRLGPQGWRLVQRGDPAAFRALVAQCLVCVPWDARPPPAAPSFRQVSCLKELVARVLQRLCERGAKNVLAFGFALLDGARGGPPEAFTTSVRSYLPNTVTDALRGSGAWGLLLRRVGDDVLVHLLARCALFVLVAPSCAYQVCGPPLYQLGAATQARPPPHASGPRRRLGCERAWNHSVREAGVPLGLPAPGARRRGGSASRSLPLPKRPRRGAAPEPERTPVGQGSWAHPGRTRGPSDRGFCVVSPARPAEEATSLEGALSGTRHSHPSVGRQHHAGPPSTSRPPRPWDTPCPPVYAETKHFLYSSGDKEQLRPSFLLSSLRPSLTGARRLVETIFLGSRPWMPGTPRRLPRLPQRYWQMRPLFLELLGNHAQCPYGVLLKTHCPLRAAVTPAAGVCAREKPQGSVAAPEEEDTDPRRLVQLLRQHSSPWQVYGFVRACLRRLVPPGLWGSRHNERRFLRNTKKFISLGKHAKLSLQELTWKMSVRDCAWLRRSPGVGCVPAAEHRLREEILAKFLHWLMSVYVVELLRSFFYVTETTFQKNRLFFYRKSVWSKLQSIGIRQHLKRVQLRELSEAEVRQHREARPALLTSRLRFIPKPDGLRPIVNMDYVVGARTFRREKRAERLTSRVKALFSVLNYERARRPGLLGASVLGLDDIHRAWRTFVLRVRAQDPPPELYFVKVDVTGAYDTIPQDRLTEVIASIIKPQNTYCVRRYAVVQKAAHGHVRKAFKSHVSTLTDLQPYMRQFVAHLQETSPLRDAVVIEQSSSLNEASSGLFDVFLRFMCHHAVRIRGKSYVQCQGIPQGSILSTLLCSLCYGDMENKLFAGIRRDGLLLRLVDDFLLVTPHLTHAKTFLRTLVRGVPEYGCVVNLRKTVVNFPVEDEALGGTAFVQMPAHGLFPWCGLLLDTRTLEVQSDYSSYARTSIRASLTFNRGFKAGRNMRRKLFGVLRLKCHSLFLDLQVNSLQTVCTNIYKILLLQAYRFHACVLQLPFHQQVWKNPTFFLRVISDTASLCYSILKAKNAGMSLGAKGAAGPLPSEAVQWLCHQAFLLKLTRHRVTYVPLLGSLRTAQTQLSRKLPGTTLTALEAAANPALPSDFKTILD
measured-property: pIC50

> print(dat)
                                    compound  relational.operator  value.reported
 1  O=C(O)CCCCCCCCCCCNC(=O)Cc1cn(CCCN2CCCC2)c2ccccc12                    <            4.00
 2  CC[N+](C)(CC)CCC(=O)Nc1ccc2c(c1)C(=O)c1cc(NC(=O)CC[N+](C)(CC)CC)ccc1-2                    =            4.60
 3  O=C(CCN1CCCCCC1)Nc1ccc2c(c1)C(=O)c1ccc(NC(=O)CCN3CCCCCC3)cc1C2=O                    =            4.89
 4  O=C(CCN1CCCC1)Nc1ccc2c(NCCCCCCNc3c4ccc(NC(=O)CCN5CCCC5)cc4nc4cc(NC(=O)CCN5CCCC5)ccc34)c3ccc(NC(=O)CCN4CCCC4)cc3nc2c1                    =            5.40
 5  CCNCC(=O)Nc1ccc2c(c1)C(=O)c1ccc(NC(=O)CNCC)cc1C2=O                    =            7.00
 6  CCN(CC)CCNc1cccc2c1C(=O)c1c(NCCCCCO)cccc1C2=O                    =            5.00
 7  CSc1nc(Nc2ccc3nc(C)cc(C)c3c2)nc(Nc2ccc3nc(C)cc(N)c3c2)n1                    =            5.47
 8  CN(C)CCC(=O)Nc1cccc2c1C(=O)c1cccc(NC(=O)CCN(C)C)c1C2=O                    =            5.89
 9  CSc1nc(Nc2ccc3nc(C)ccc3c2)nc(Nc2ccc3nc(C)cc(N)c3c2)n1                    =            6.00
10  COc1ccc2c(ccc3c2[nH]c2c4ccccc4nc(NCCCN(C)C)c32)c1                    =            6.00
11  O=C(CCN1CCCC1)Nc1ccc2c(c1)C(=O)c1cc(NC(=O)CCN3CCCC3)ccc1C2=O                    =            5.70
12  C[N+]1(CCC(=O)Nc2ccc3c(c2)C(=O)c2cc(NC(=O)CC[N+]4(C)CCCCC4CO)ccc2-3)CCCCC1CO (configuration not stated)                    =            4.48
13  C[N+](C)(C)CCC(=O)Nc1cccc2c1C(=O)c1c(NC(=O)CC[N+](C)(C)C)cccc1C2=O                    =            5.36
14  CN(C)CCC(=O)Nc1ccc2c(c1)C(=O)c1ccc(NC(=O)CCN(C)C)cc1C2=O                    =            5.39
15  CCc1cc(Nc2nc(Nc3ccc4nc(C)cc(N)c4c3)nc(SC)n2)ccn1                    =            5.66
16  CSc1nc(Nc2ccc3nc(C)cc(N)c3c2)nc(Nc2ccc3nc(C)cc(N(C)C)c3c2)n1                    =            6.47
17           COc1ccc(SC(=O)c2cccc(C=O)n2)cc1                    =            4.04
18  CSc1nc(Nc2ccc3nc(C)cc(N)c3c2)nc(N(C)c2ccc3ncccc3c2)n1                    =            5.46
19  C[N+]1(CCC(=O)Nc2ccc(NC(=O)CC[N+]3(C)CCCC3)c3c2C(=O)c2ccccc2C3=O)CCCC1                    =            5.30
20  Cc1ccc2c(c1)-c1c3c(cc(C)cc3c3cc(C)ccc3[n+]1C)N2C                    =            6.60
21  O=C(CCN1CCCCC1)Nc1ccc2c(c1)C(=O)c1cc(NC(=O)CCN3CCCCC3)ccc1C2=O                    =            5.51
22  O=C(CCN1CCOCC1)Nc1ccc2c(c1)C(=O)c1cc(NC(=O)CCN3CCOCC3)ccc1C2=O                    <            4.30
23  Cc1cn(CCn2cc(CC(=O)NCCCCCCCCCCCC(=O)O)c3ccccc32)c2ccccc12                    <            4.00
24  O=C(CCN1CCCCC1CO)Nc1ccc2c(c1)C(=O)c1cc(NC(=O)CCN3CCCCC3CO)ccc1-2 (configuration not stated)                    =            5.10
25  C[N+]1(CCC(=O)Nc2ccc3c(c2)C(=O)c2cc(NC(=O)CC[N+]4(C)CCC(O)CC4)ccc2-3)CCC(O)CC1 (configuration not stated)                    <            4.70
26  Cc1cc(N(C)C)c2cc(Nc3nc(Cl)nc(Nc4ccc5nc(C)cc(N(C)C)c5c4)n3)ccc2n1                    =            5.52
27          N#Cc1ccc(C=O)nc1SCc1c(Cl)cccc1Cl                    =            4.11
28         O=Cc1cccc(C(=O)Sc2ccc(F)c(F)c2)n1                    =            4.16
29  O=c1cc(-c2ccc(OCc3ccc(Cl)nc3)cc2)oc2cc(OCc3ccc(Cl)nc3)ccc12                    =            4.44
30       O=Cc1cccc(C(=O)Oc2ccc(Cl)c(Cl)c2)n1                    <            4.00
31  CC[N+](C)(CC)CCC(=O)Nc1cccc2c1C(=O)c1cccc(NC(=O)CC[N+](C)(CC)CC)c1C2=O                    =            4.77
32  CC[N+](C)(CC)CCC(=O)Nc1cccc2c1C(=O)c1c(NC(=O)CC[N+](C)(CC)CC)cccc1C2=O                    =            5.12
